List of Ki values.
Target: α5β3γ2 GABAA receptors (Ltk cell membranes) (Homo sapiens, UniProt P18507+P31644)
Construct: membranes
Sequence (P31644 32-462): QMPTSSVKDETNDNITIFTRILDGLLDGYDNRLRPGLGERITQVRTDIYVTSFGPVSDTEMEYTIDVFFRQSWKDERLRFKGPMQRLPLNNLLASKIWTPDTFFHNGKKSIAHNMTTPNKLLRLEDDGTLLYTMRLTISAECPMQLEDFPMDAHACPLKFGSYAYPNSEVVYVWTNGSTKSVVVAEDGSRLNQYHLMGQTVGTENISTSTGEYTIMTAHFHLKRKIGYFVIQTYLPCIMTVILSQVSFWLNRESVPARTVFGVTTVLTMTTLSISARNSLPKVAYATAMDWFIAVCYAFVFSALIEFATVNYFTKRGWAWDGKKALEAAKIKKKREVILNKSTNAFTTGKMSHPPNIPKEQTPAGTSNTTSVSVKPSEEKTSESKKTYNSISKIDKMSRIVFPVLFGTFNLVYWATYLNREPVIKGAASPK
Sequence (P28472 26-473 partner): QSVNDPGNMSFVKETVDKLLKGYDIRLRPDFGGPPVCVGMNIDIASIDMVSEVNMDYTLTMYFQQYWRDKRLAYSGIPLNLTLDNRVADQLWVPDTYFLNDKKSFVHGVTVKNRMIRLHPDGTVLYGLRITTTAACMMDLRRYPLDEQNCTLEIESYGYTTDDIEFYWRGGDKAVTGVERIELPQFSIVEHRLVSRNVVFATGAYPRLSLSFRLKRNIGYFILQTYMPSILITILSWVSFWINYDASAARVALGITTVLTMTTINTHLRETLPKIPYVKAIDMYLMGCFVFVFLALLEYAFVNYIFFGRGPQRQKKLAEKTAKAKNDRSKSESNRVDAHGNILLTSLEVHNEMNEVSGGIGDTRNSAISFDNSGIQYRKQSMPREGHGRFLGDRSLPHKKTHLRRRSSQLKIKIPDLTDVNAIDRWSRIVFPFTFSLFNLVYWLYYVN
Sequence (P18507 40-475): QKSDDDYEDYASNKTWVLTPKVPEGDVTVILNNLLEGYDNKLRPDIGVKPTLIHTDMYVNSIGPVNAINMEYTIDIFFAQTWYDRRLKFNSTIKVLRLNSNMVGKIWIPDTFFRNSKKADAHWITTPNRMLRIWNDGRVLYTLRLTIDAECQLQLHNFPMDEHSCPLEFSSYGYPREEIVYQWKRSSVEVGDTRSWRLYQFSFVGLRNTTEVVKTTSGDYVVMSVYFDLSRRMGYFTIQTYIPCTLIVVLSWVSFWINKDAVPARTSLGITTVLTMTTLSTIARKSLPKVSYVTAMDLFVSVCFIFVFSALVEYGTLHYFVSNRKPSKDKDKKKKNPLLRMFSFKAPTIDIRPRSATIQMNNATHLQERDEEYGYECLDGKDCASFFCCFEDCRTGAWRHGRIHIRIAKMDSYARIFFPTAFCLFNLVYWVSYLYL
Test: Binding activity of test compounds on GABAAR: inhibition of [3H]Ro15-1788 binding
Settings: GABA α5 Binding Ki Values, inhibition of [3H]Ro15-1788 binding; reported as ranges
Description: Tissue culture and Membrane Preparation: The binding was performed on Ltk cells stably expressing GABAA receptors: α1β1γ2, α2β3γ2, α3β3γ2 and α5β3γ2 (provided by Merck Co., NJ, USA). Cells were seeded in 100 mm culture plates in DMEM/F12 medium containing 10% serum and antibiotics in 5% CO2 and allowed to grow for 1-2 days. […] Protein content was determined using BCA assay (Bio-Rad Labs, Reinach, Switzerland) with Bovine Serum Albumin (Sigma Aldrich, St. Louis, Mo., USA) as the standard. […]

{"Molecule": "CC(C)C#Cc1ncn2c1Cc1cnnn1-c1cc(Cl)ccc1-2 [Compound 415]", "Ki": "< 100 nM"}
{"Molecule": "C=Cc1ncn2c1Cc1c(Cc3ccccc3)nnn1-c1cc(OC)ccc1-2 [Compound 220]", "Ki": "100 to 1000 nM"}
{"Molecule": "CCOC(=O)c1ncn2c1Cn1c(Br)nnc1-c1cc(OC)ccc1-2 [Compound 106]", "Ki": "< 100 nM"}
{"Molecule": "COCc1nnc2n1Cc1c(C3=N[C@H](c4ccccc4)CO3)ncn1-c1ccc(OC)cc1-2 [Compound 340]", "Ki": "< 100 nM"}
{"Molecule": "COc1ccc2c(c1)-c1nnc(COCc3cccnc3)n1Cc1c(-c3noc(C(C)C)n3)ncn1-2 [Compound 203]", "Ki": "< 100 nM"}

# context switch: different molecule, same Ki
Recorded Ki for Clc1ccc2c(c1)-c1nnc(COc3ccccc3)n1Cc1c(Br)ncn1-2 [Compound 202] , please? < 100 nM
